meta.source: patent US20200061062A1

Biological target: PI3Kβ (Homo sapiens, UniProt P42338)
Construct: His tag (pFastbac HTa vector) (N); FLAG (N); made in house; host or cells: Sf21 insect cells (baculovirus)
Sequence (P42338 whole entry): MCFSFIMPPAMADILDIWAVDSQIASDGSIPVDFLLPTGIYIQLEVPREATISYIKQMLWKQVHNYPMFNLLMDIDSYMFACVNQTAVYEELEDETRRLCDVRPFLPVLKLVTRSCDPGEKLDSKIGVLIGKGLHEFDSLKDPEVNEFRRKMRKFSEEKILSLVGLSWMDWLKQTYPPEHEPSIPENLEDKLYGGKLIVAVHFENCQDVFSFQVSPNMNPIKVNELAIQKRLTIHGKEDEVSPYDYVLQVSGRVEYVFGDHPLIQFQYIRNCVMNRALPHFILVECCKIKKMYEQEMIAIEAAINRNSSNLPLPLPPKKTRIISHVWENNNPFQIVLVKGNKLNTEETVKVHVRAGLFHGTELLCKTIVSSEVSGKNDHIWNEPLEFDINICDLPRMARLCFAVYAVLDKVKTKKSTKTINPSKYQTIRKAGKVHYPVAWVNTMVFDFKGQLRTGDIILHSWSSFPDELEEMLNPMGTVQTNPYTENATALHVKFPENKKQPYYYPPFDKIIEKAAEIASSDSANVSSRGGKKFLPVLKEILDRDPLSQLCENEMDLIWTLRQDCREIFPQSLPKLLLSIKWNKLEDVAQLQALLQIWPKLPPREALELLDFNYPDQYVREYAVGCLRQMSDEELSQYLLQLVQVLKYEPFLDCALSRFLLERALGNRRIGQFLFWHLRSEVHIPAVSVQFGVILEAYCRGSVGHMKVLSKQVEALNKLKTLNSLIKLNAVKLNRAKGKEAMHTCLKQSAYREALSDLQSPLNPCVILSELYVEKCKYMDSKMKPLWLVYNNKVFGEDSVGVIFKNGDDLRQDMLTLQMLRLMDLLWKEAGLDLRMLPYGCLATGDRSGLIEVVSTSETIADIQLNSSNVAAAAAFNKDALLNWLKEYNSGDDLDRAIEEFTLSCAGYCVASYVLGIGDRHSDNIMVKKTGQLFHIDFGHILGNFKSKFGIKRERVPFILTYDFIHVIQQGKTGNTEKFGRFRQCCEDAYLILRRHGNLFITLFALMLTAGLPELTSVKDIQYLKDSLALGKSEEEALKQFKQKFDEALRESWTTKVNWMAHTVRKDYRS
Sequence (P27986 whole entry partner): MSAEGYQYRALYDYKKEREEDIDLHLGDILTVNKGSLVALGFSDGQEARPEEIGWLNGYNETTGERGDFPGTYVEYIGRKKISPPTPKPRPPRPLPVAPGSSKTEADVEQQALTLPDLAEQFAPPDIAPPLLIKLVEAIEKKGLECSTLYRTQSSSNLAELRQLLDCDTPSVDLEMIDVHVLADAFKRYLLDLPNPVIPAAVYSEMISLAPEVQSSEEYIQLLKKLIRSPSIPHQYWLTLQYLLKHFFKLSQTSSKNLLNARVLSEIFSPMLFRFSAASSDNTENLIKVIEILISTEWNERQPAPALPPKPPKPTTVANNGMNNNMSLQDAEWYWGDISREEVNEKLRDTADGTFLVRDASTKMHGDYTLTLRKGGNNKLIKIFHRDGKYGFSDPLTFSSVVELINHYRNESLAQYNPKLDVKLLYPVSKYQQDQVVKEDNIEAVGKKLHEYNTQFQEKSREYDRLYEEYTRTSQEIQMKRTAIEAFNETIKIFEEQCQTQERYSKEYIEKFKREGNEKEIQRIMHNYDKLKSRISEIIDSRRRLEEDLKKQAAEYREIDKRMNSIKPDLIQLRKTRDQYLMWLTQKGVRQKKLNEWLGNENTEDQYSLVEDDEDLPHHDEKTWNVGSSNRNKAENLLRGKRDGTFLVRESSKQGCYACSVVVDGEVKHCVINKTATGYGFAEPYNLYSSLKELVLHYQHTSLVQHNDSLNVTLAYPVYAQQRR
Experiment: Biochemical assay of PI3K potency and selectivity using 20 μM ATP, Beta
Details: 20 μM ATP; ratio of IC50 values; > = hypothetical ratio with 100 μM substituted for the missing IC50
# Beta/Delta Ratio per entry
reported-property: Beta/Delta Ratio

| smiles-data | value |
| --- | --- |
| O=c1c2ccccc2nc(CSc2ncnc3[nH]cnc23)n1-c1ccc(Cl)cc1 | >13 |
| Nc1ncnc2c1ncn2Cc1nc2cc(F)ccc2c(=O)n1-c1ccccc1Cl | >24 |
| Nc1ncnc2c1ncn2Cc1nc2ccc(Br)cc2c(=O)n1-c1ccccc1Cl | >2.3 |
| O=c1c2c(F)cccc2nc(CSc2ncnc3[nH]cnc23)n1-c1ccccc1Cl | >480 |

====

Target: PI3Kα (Homo sapiens, UniProt P42336)
Construct: His tag (pFastbac HTb vector) (N); FLAG; made in house; host or cells: Sf21 insect cells (baculovirus)
Sequence (P42336 whole entry): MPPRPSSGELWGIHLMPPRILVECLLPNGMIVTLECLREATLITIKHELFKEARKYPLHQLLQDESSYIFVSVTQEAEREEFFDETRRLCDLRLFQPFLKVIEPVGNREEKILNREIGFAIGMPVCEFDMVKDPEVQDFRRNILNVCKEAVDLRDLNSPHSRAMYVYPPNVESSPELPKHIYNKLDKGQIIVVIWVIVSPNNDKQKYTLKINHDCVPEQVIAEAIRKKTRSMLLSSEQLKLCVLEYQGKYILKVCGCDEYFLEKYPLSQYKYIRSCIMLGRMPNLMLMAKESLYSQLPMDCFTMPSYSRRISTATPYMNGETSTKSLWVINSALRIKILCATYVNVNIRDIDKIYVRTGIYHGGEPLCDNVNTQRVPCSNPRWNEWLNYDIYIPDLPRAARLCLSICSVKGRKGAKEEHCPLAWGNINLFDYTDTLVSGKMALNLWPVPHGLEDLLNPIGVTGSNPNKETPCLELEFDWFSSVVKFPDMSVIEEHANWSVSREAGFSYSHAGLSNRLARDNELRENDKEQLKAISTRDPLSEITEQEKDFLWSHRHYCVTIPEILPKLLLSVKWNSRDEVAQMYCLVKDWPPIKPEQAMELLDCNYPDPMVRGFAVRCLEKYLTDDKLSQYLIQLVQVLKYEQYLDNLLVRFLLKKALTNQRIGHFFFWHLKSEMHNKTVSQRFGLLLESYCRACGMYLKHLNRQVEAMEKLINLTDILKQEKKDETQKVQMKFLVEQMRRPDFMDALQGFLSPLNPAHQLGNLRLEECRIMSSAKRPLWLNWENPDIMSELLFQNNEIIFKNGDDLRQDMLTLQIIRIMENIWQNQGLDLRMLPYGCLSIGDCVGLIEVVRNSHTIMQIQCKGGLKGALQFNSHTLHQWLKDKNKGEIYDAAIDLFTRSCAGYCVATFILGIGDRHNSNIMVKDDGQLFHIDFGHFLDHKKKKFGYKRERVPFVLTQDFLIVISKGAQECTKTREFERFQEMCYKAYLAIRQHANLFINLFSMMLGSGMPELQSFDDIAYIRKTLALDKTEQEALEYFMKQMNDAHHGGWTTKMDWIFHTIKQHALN
Sequence (P27986 whole entry partner): as the sequence (P27986 whole entry partner) above
Assay: Biochemical assay of PI3K potency and selectivity using 20 μM ATP, Alpha
Conditions: 20 μM ATP; ratio of IC50 values; > = hypothetical ratio with 100 μM substituted for the missing IC50
reported-property: Alpha/Delta Ratio

| smiles-data | reported-property | value |
| --- | --- | --- |
| O=c1c2c(F)cccc2nc(CSc2ncnc3[nH]cnc23)n1Cc1ccccc1 | Alpha/Delta Ratio | >47 |
| Nc1ncnc2c1ncn2Cc1nc2cccc(F)c2c(=O)n1-c1ccccc1Cl | Alpha/Delta Ratio | >121 |
| COc1cccc(-n2c(CSc3ncnc4[nH]cnc34)nc3ccccc3c2=O)c1 | Alpha/Delta Ratio | >61 |
| O=c1c2cc(Br)ccc2nc(CSc2ncnc3[nH]cnc23)n1-c1ccccc1Cl | Alpha/Delta Ratio | >8 |
| O=c1c2cc(Cl)ccc2nc(CSc2ncnc3[nH]cnc23)n1-c1ccccc1Cl | Alpha/Delta Ratio | >53 |
| O=c1c2cc(F)c(F)cc2nc(CSc2ncnc3[nH]cnc23)n1-c1ccccc1Cl | Alpha/Delta Ratio | >169 |
| Nc1ncnc2c1ncn2Cc1nc2ccc(Br)cc2c(=O)n1-c1ccccc1Cl | Alpha/Delta Ratio | >2.3 |
| Cc1cccc2nc(Cn3cnc4c(N)ncnc43)n(-c3ccccc3C(C)C)c(=O)c12 | Alpha/Delta Ratio | 882 |
| O=c1c2c(Cl)cccc2nc(CSc2ncnc3[nH]cnc23)n1-c1ccccc1F | Alpha/Delta Ratio | >1,000 |
| O=c1c2cc(F)ccc2nc(CSc2ncnc3[nH]cnc23)n1-c1ccccc1Cl | Alpha/Delta Ratio | >556 |
| COc1ccccc1-n1c(CSc2ncnc3[nH]cnc23)nc2cccc(C)c2c1=O | Alpha/Delta Ratio | 333 |

====

Biological target: PI3Kγ (Homo sapiens, UniProt P48736)
Construct: His tag (pFastbac HTb vector) (N); FLAG (N); made in house; host or cells: Sf21 insect cells (baculovirus)
Sequence (P48736 whole entry): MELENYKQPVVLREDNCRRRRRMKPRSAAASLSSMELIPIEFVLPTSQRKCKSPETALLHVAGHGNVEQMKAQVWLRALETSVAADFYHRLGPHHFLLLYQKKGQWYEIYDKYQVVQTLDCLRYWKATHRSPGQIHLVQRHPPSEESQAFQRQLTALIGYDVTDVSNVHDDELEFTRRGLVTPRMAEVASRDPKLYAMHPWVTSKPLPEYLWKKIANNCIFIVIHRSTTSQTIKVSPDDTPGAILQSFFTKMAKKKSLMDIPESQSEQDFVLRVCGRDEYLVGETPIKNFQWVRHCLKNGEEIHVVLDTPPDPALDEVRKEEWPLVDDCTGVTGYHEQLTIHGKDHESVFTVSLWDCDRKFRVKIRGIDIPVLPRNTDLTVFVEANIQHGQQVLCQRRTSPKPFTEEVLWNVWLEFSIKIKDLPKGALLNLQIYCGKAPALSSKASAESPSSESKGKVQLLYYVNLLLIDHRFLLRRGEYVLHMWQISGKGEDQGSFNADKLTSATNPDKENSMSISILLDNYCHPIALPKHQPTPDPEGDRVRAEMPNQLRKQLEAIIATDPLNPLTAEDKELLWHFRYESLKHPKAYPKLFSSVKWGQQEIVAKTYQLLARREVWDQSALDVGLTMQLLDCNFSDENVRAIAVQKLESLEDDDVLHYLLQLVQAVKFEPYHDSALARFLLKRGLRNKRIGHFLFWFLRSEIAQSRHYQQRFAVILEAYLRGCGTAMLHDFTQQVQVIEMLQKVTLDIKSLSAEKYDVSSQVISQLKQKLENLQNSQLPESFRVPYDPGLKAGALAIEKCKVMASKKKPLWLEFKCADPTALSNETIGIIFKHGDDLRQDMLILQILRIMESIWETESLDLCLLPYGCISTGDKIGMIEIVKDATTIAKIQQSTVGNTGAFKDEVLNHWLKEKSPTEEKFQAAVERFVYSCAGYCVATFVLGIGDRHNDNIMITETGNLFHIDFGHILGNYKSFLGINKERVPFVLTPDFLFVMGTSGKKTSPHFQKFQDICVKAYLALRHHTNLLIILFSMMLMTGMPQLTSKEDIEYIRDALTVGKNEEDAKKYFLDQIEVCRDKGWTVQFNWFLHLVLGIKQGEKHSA
Assay: Biochemical assay using 200 μM ATP, Gamma
Consider the cut-off 20. If the recorded Gamma/Delta Ratio is strictly smaller, the label is MET; if not, the label is NOT MET.

| smiles-data | class-assignment |
| --- | --- |
| Cc1cccc2nc(CSc3ncnc4[nH]cnc34)n(-c3c(Cl)cccc3Cl)c(=O)c12 | NOT MET |
| Cc1cccc2nc(Cn3cnc4c(N)ncnc43)n(-c3ccccc3F)c(=O)c12 | NOT MET |
| COc1ccccc1-n1c(CSc2ncnc3[nH]cnc23)nc2cccc(C)c2c1=O | NOT MET |
| Cc1ccccc1-n1c(CSc2ncnc3[nH]cnc23)nc2cccc(Cl)c2c1=O | NOT MET |
| Nc1ncnc2c1ncn2Cc1nc2cccc(F)c2c(=O)n1-c1ccccc1Cl | MET |
| CCCCn1c(CSc2ncnc3[nH]cnc23)nc2ccccc2c1=O | NOT MET |
| CC(=O)O.O=c1c2ccccc2nc(CSc2ncnc3[nH]cnc23)n1N1CCOCC1 | NOT MET |
| O=c1c2cc(F)ccc2nc(CSc2ncnc3[nH]cnc23)n1-c1ccccc1Cl | MET |
| Cc1cccc2nc(Cn3cnc4c(N)ncnc43)n(-c3ccccc3C(C)C)c(=O)c12 | NOT MET |
| O=c1c2ccccc2nc(CSc2ncnc3[nH]cnc23)n1-c1ccccc1 | NOT MET |
| Nc1ncnc2c1ncn2Cc1nc2cccc(Cl)c2c(=O)n1-c1ccccc1Cl | NOT MET |
| O=c1c2cc(F)c(F)cc2nc(CSc2ncnc3[nH]cnc23)n1-c1ccccc1Cl | MET |
| Cc1cccc2nc(Cn3cnc4c(N)ncnc43)n(-c3ccccc3Cl)c(=O)c12 | NOT MET |
| Cc1cccc2nc(CSc3ncnc4[nH]cnc34)n(-c3ccccc3C(C)C)c(=O)c12 | MET |
| COc1ccccc1-n1c(CSc2ncnc3[nH]cnc23)nc2ccccc2c1=O | MET |
| Cc1cccc2nc(CSc3ncnc4[nH]cnc34)n(-c3ccccc3F)c(=O)c12 | NOT MET |
| O=c1c2ccccc2nc(CSc2ncnc3[nH]cnc23)n1-c1ccccc1Cl | MET |
| O=c1c2ccccc2nc(CSc2ncnc3[nH]cnc23)n1Cc1ccccc1 | MET |
| O=c1c2c(Cl)cccc2nc(CSc2ncnc3[nH]cnc23)n1-c1ccccc1F | NOT MET |
| Nc1ncnc2c1ncn2Cc1nc2cccc(Cl)c2c(=O)n1-c1ccccc1-c1ccccc1 | NOT MET |
| Nc1ncnc2c1ncn2Cc1nc2cccc(Cl)c2c(=O)n1-c1ccccc1F | NOT MET |
| O=c1c2c(Cl)cccc2nc(CSc2ncnc3[nH]cnc23)n1-c1ccccc1-c1ccccc1 | NOT MET |
